system: primary rat mixed cortical cells; assay: In vitro myelination assay (MBP positive myelin strands, fold myelin pixels above background); type: cell-based; conditions: Rattus norvegicus, 10.0 μM compound, relative to baseline of no added compound; read-out: Fold myelin pixels above background, 10.0 μM
Recorded fold induction at 10 µM for the following compounds

Solved cases (5 shown):
{"COMPOUND": "Cc1cc(Nc2ncn(-c3ccccc3)n2)cc(N2CCCN(C3CC3)CC2)c1", "fold induction at 10 µM": "≤ 1"}
{"COMPOUND": "CC(=O)N1CCN(c2cc(Nc3ncn(-c4ccccc4)n3)cc(C(F)F)c2)CC1", "fold induction at 10 µM": "≤ 1"}
{"COMPOUND": "CCc1cc(Nc2ncn(-c3cc(C)ncn3)n2)cc(N2CCN(C3COC3)CC2)c1", "fold induction at 10 µM": "100 to 1000"}
{"COMPOUND": "Cc1cc(Nc2ncn(-c3cccc(C(F)(F)F)c3)n2)cc(N2CCN(C3COC3)CC2)c1", "fold induction at 10 µM": "100 to 1000"}
{"COMPOUND": "COc1nccc(-n2cnc(Nc3cc(C)cc(N4CCN(C5COC5)CC4)c3)n2)n1", "fold induction at 10 µM": "100 to 1000"}

Q: Note down fold induction at 10 µM recorded for Cc1cc(Nc2ncn(-c3ccccc3)n2)cc(N2CCN3C(=O)OCC3C2)c1 (centres unmarked)
A: 10 to 100

Q: Assign fold induction at 10 µM to the following record: c1ccc(-n2cnc(Nc3cc(C4CCOC4)cc(N4CCOCC4)c3)n2)cc1 (centres unmarked)
A: 10 to 100

Q: Dear colleague, please send me the reported fold induction at 10 µM for Cc1cc(Nc2ncn(-c3ccc(C#N)c(F)c3)n2)cc(N2CCN(C3COC3)CC2)c1 when you can.
A: 1 to 10

Q: Provide fold induction at 10 µM value for the following compound: Fc1cc(Nc2ncn(-c3cccc(F)c3)n2)cc(N2CCOCC2)c1
A: 100 to 1000

###

Below: a set of entries, each annotated with reported fold induction at 1 µM.
test system: primary rat mixed cortical cells; assay: In vitro myelination assay (MBP positive myelin strands, fold myelin pixels above background); type: cell-based; conditions: Rattus norvegicus, 1.0 μM compound, relative to baseline of no added compound; read-out: Fold myelin pixels above background

The examples below pair each entry with its known result.
{"COMPOUND": "Cc1cc(Nc2cc(C)[nH]n2)cc(Nc2ncn(-c3ccccc3)n2)c1", "fold induction at 1 µM": "1 to 10"}
{"COMPOUND": "Cc1cc(Nc2ncn(-c3cc(F)cc(F)c3)n2)nc(N2CCCC(F)C2)c1 (centres unmarked)", "fold induction at 1 µM": "1 to 10"}
{"COMPOUND": "Cc1cc(Nc2ncn(-c3ccccc3)n2)cc(N2CCN(CC(F)(F)F)CC2)c1", "fold induction at 1 µM": "1000 to 10000"}
{"COMPOUND": "CCc1cc(Nc2ncn(-c3cccc(OC)c3)n2)cc(N2CCN(C3COC3)CC2)c1", "fold induction at 1 µM": "100 to 1000"}
{"COMPOUND": "Cc1cc(Nc2ncn(-c3cc(C)cc(F)c3)n2)cc(N2CCN(C)CC2)c1", "fold induction at 1 µM": "100 to 1000"}
{"COMPOUND": "Fc1cc(Nc2ncn(-c3ccnc(F)c3)n2)cc(N2CCN(C3COC3)CC2)c1", "fold induction at 1 µM": "≤ 1"}

Q: Specify measured fold induction at 1 µM for Cc1cc(Nc2ncn(-c3cc(F)cc(F)c3)n2)cc(OC2CCCN(C3COC3)C2)c1 (centres unmarked) .
A: 10 to 100

Q: Look up and report measured fold induction at 1 µM for this entry: Cc1cc(Nc2ncn(-c3cc(F)cc(F)c3)n2)cc(N2CC(N3C4CCC3COC4)C2)c1
A: 10 to 100

Q: Specify fold induction at 1 µM for Cc1cc(Nc2ncn(-c3ccccn3)n2)cc(C2COC2)c1 and stop.
A: 100 to 1000

Q: Please supply the value of reported fold induction at 1 µM for the item Cc1cc(Nc2ncn(-c3ccc(F)c(F)c3)n2)cc(OCC2CC(F)(F)C2)c1
A: 10 to 100

Q: Provide one value: measured fold induction at 1 µM of CC(=O)N1CCCC(c2cc(C)cc(Nc3ncn(-c4ccncn4)n3)c2)C1 (centres unmarked)
A: 100 to 1000

Q: Let me know recorded fold induction at 1 µM for N#Cc1cc(Nc2ncn(-c3ccc(F)c(F)c3)n2)cc(N2CCOCC2)c1 , thanks.
A: 1 to 10

Q: Return reported fold induction at 1 µM. Input compound: CC(C)(C)c1cc(Nc2ncn(-c3cncnc3)n2)cc(N2CCN(C3COC3)CC2)c1
A: 10 to 100

###

tested on: primary rat mixed cortical cells; assay: In vitro myelination assay (MBP positive myelin strands, fold myelin pixels above background); type: cell-based; conditions: Rattus norvegicus, 10.0 μM compound; read-out: Fold myelin pixels above background relative to baseline of no added compound
MEASURED METRIC: fold induction at 10 µM

{"MOLECULE": "Fc1ccc(-n2cnc(Nc3cc(C(F)F)cc(N4CCN(C5COC5)CC4)n3)n2)cc1 [Compound 806]", "ASSAY VALUE": "≤ 1"}
{"MOLECULE": "Cc1cc(Nc2ncn(-c3cc(F)cc(F)c3)n2)c(F)c(N(C)C2COC2)c1 [Compound 969]", "ASSAY VALUE": "≤ 1"}
{"MOLECULE": "Cc1cc(NCC2COCCN2C)cc(Nc2ncn(-c3cc(F)cc(F)c3)n2)c1 (centres unmarked) [Compound 1062]", "ASSAY VALUE": "≤ 1"}
{"MOLECULE": "Cc1cc(Nc2ncn(-c3cccc(C(F)(F)F)c3)n2)cc(N2CCC(N3CCOCC3)CC2)c1 [Compound 854]", "ASSAY VALUE": "10 to 100"}
{"MOLECULE": "Cc1cc(Nc2ncn(-c3ccc(F)c(F)c3)n2)c(F)c(N2CCN(C3COC3)CC2)c1 [Compound 998]", "ASSAY VALUE": "1 to 10"}

Q: Tell me measured fold induction at 10 µM for COCCN1CCC(Nc2cc(C)cc(Nc3ncn(-c4cc(F)cc(F)c4)n3)c2)C1 (centres unmarked) [Compound 894] please.
A: ≤ 1

Q: Return reported fold induction at 10 µM. Input molecule: Cc1cc(Nc2ncn(-c3cc(F)cc(F)c3)n2)cc(NC2CCOCC2N2CCCC2)c1 (centres unmarked) [Compound 884]
A: ≤ 1

Q: Find the measured fold induction at 10 µM of Cc1cc(Nc2ncn(-c3cc(F)cc(F)c3)n2)cc(N2CCC3OCC3C2)c1 (centres unmarked) [Compound 1057] and report it.
A: ≤ 1

###

test system: primary rat mixed cortical cells; assay: In vitro myelination assay (MBP positive myelin strands, fold myelin pixels above background); type: cell-based; details: Rattus norvegicus, 10.0 μM compound; read-out: Fold myelin pixels above background relative to baseline of no added compound
MEASURED METRIC: fold induction at 10 µM

Q: Indicate its recorded fold induction at 10 µM; the molecule in question is Cc1cc(Nc2ncn(-c3cc(F)cc(F)c3)n2)cc(N2CCC(N3CCOC(C)C3)CC2)c1 (stereo not drawn) [Compound 1023]
A: 10 to 100

Q: Read off the recorded fold induction at 10 µM for Cc1cc(Nc2ncn(-c3cc(F)cc(F)c3)n2)nc(OC2CCCOC2)c1 (stereo not drawn) [Compound 999]
A: ≤ 1

Q: // Input: Cc1cc(NCCN2CCOCC2C)cc(Nc2ncn(-c3cc(F)cc(F)c3)n2)c1 (stereo not drawn) [Compound 1082] . Output its fold induction at 10 µM only.
A: ≤ 1

Q: Read the entry [2H]C1([2H])N(C(=O)C2CC2)C([2H])([2H])C([2H])([2H])N(c2cc(Nc3ncn(-c4cc(F)cc(F)c4)n3)cc(C(F)F)c2)C1([2H])[2H] [Compound 1041] and write its reported fold induction at 10 µM.
A: 1 to 10

Q: Provide fold induction at 10 µM value for the following molecule: Cc1cc(Nc2ncn(-c3cnccn3)n2)cc(C2(C)CN(C)C(=O)O2)c1 (stereo not drawn) [Compound 846]
A: 1 to 10

Q: Give reported fold induction at 10 µM value for COCCN(C)C(=O)C1CN(c2cc(C)cc(Nc3ncn(-c4cc(F)cc(F)c4)n3)c2)C1 [Compound 824]
A: 1 to 10

Q: Report fold induction at 10 µM for Cc1cc(Nc2ncn(-c3cc(F)cc(F)c3)n2)cc(N2CCC(OC3CCOC3)CC2)c1 (stereo not drawn) [Compound 1014]
A: 1 to 10

###

Reported fold induction at 1 µM values follow for various compounds
tested on: primary rat mixed cortical cells; experiment: In vitro myelination assay (MBP positive myelin strands, fold myelin pixels above background); format: cell-based; details: Rattus norvegicus, 1.0 μM compound, relative to baseline of no added compound; read-out: Fold myelin pixels above background

Solved cases below.
{"COMPOUND": "Cc1cc(Nc2ncn(-c3ccc(F)c(F)c3)n2)cc(OC2CCCN(C3COC3)C2)c1 (centres unmarked) [Compound 590]", "fold induction at 1 µM": "10 to 100"}
{"COMPOUND": "CNC(=O)c1cc(Nc2ncn(-c3cc(F)cc(F)c3)n2)nc(N2CCN(C3COC3)CC2)c1 [Compound 664]", "fold induction at 1 µM": "1 to 10"}
{"COMPOUND": "Cc1cc(Nc2ncn(-c3cc(F)cc(F)c3)n2)cc(N2CC(C(=O)N3CCOCC3)C2)c1 [Compound 690]", "fold induction at 1 µM": "1 to 10"}
{"COMPOUND": "Cc1cc(C#CC2CC2)cc(Nc2ncn(-c3cccc(F)c3)n2)c1 [Compound 769]", "fold induction at 1 µM": "1 to 10"}
{"COMPOUND": "Cc1cc(Nc2ncn(-c3cc(F)cc(F)c3)n2)cc(N2C3CCC2COC3)c1 [Compound 722]", "fold induction at 1 µM": "10 to 100"}
{"COMPOUND": "Clc1cc(Nc2ncn(-c3cnccn3)n2)cc(N2CC(N3CCOCC3)C2)c1 [Compound 753]", "fold induction at 1 µM": "10 to 100"}

Q: Answer with the recorded fold induction at 1 µM of CSc1cccc(-n2cnc(Nc3cc(C)cc(N4CCN(C5COC5)CC4)c3)n2)c1 [Compound 439] only.
A: 1 to 10

Q: Input CCc1cc(Nc2ncn(-c3cccc(C(F)F)c3)n2)cc(N2CCN(C3COC3)CC2)c1 [Compound 736] , output reported fold induction at 1 µM.
A: 10 to 100
